From: patent US6291470A

# study-target: δ-opioid receptor (Mus musculus)
# Construct: from tissue; host or cells: vas deferens of male ddy mice
# protocol-notes: Change in δ-antagonist activity against DPDPE with time in mouse vas deferens (MVD)
# condition-summary: 60 min; 173 and NTI at 20 nM, 174 and 5'-NTII at 100 nM
Recorded Ratio of IC50 Values for the following compounds
assay-endpoint: Ratio of IC50 Values

{"columns": ["compound", "assay-endpoint", "obs-value"],
 "data": [
  ["Oc1ccc2c3c1O[C@H]1c4[nH]c5cc(N=C=S)ccc5c4C[C@@]4(O)[C@@H](C2)N(CC2CC2)CC[C@]314", "Ratio of IC50 Values", 58.6],
  ["Oc1ccc2c3c1O[C@H]1c4[nH]c5c(N=C=S)cccc5c4C[C@@]4(O)[C@@H](C2)N(CC2CC2)CC[C@]314", "Ratio of IC50 Values", 306],
  ["Oc1ccc2c3c1O[C@H]1c4[nH]c5ccccc5c4C[C@@]4(O)[C@@H](C2)N(CC2CC2)CC[C@]314 [NTI, reference compound]", "Ratio of IC50 Values", 83.7],
  ["Oc1ccc2c3c1O[C@H]1c4[nH]c5ccc(N=C=S)cc5c4C[C@@]4(O)[C@@H](C2)N(CC2CC2)CC[C@]314 [5'-NTII, reference compound]", "Ratio of IC50 Values", 9.36]
]}

----------
# study-target: δ-opioid receptor (Mus musculus)
# Construct: from tissue; host or cells: vas deferens of male ddy mice
# protocol-notes: Change in δ-antagonist activity against DPDPE with time in mouse vas deferens (MVD)
# condition-summary: 15 min to 1 hour
# Protocol: In this experiment, ddy male mice were used. […] The contraction of the tissue was recorded on polygraph using isometric transducer. Then 100 nM of the test compound was added. […] The ratio of IC50 values in the presence and absence of the test compound, Ke value (the molar concentration of the test compound necessary for translating the dose-effect curve to the curve of twice dose) and pA2 value were determined. […] Using MVD, the antagonist activities of compounds 173 and 174 against DPDPE were determined. […]
assay-endpoint: change of antagonist activity with time (in words)

{"columns": ["compound", "study-target", "obs-value"],
 "data": [
  ["Oc1ccc2c3c1O[C@H]1c4[nH]c5c(N=C=S)cccc5c4C[C@@]4(O)[C@@H](C2)N(CC2CC2)CC[C@]314", "δ-opioid receptor (Mus musculus)", "increased with time"],
  ["Oc1ccc2c3c1O[C@H]1c4[nH]c5ccc(N=C=S)cc5c4C[C@@]4(O)[C@@H](C2)N(CC2CC2)CC[C@]314 [5'-NTII, reference compound]", "δ-opioid receptor (Mus musculus)", "increased with time"],
  ["Oc1ccc2c3c1O[C@H]1c4[nH]c5cc(N=C=S)ccc5c4C[C@@]4(O)[C@@H](C2)N(CC2CC2)CC[C@]314", "δ-opioid receptor (Mus musculus)", "increased with time"]
]}

----------
# study-target: δ-opioid receptor (Mus musculus, UniProt P32300)
# Construct: from tissue; host or cells: vas deferens of male ddy mice
# Sequence (P32300 whole entry): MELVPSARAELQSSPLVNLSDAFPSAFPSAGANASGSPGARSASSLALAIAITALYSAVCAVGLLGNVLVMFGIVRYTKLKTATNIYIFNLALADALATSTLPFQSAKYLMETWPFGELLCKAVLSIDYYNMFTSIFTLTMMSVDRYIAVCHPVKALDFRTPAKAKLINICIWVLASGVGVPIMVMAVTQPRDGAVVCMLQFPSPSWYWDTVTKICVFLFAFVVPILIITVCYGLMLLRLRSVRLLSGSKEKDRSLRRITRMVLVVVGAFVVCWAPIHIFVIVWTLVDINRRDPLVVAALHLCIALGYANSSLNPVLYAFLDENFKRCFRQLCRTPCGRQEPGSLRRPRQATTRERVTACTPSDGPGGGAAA
# protocol-notes: δ-opioid antagonist activity against DPDPE in mouse vas deferens (MVD)
# condition-summary: DPDPE IC50 with/without 100 nM test compound, 20 min
# Procedure: Using mouse vas deferens (MVD), the antagonist activity against DPDPE which is a δ-opioid agonist was checked. In this experiment, ddy male mice were used. […] The contraction of the tissue was recorded on polygraph using isometric transducer. Then 100 nM of the test compound was added. […] The pA2 value was determined by the method of Shild et al (Shild, H. O., Br. J. Pharmac. Chamotehr., 4, 277 (1949)). […]
Please note: class 1 applies when Ratio of IC50 Values is 9 or greater, and class 0 applies otherwise.

{"columns": ["smi", "study-target", "cat"],
 "data": [
  ["O=C(NCC1CC1)c1ccc2c3c([nH]c2c1)[C@@H]1Oc2c(O)ccc4c2[C@@]12CCN(CC1CC1)[C@H](C4)[C@]2(O)C3", "δ-opioid receptor (Mus musculus, UniProt P32300)", "class 1"],
  ["Oc1ccc2c3c1O[C@H]1c4[nH]c5c(C(F)(F)F)cccc5c4C[C@@]4(O)[C@@H](C2)N(CC2CC2)CC[C@]314", "δ-opioid receptor (Mus musculus, UniProt P32300)", "class 1"],
  ["CCOC(=O)Cc1cccc2[nH]c3c(c12)C[C@@]1(O)[C@H]2Cc4ccc(O)c5c4[C@@]1(CCN2CC1CC1)[C@H]3O5", "δ-opioid receptor (Mus musculus, UniProt P32300)", "class 0"],
  ["CCCOC(=O)c1ccc2c3c([nH]c2c1)[C@@H]1Oc2c(O)ccc4c2[C@@]12CCN(CC1CC1)[C@H](C4)[C@]2(O)C3", "δ-opioid receptor (Mus musculus, UniProt P32300)", "class 1"],
  ["Oc1ccc2c3c1O[C@H]1c4[nH]c5ccc(CNCC6CC6)cc5c4C[C@@]4(O)[C@@H](C2)N(CC2CC2)CC[C@]314", "δ-opioid receptor (Mus musculus, UniProt P32300)", "class 1"],
  ["CS(=O)(=O)c1cccc2c3c([nH]c12)[C@@H]1Oc2c(O)ccc4c2[C@@]12CCN(CC1CC1)[C@H](C4)[C@]2(O)C3", "δ-opioid receptor (Mus musculus, UniProt P32300)", "class 1"],
  ["CS(=O)(=O)c1ccc2[nH]c3c(c2c1)C[C@@]1(O)[C@H]2Cc4ccc(O)c5c4[C@@]1(CCN2CC1CC1)[C@H]3O5", "δ-opioid receptor (Mus musculus, UniProt P32300)", "class 1"],
  ["COC(=O)c1cccc2[nH]c3c(c12)C[C@@]1(O)[C@H]2Cc4ccc(O)c5c4[C@@]1(CCN2CC1CC1)[C@H]3O5", "δ-opioid receptor (Mus musculus, UniProt P32300)", "class 0"],
  ["C=CCN1CC[C@]23c4c5ccc(O)c4O[C@H]2c2[nH]c4cccc(C(=O)OC)c4c2C[C@@]3(O)[C@H]1C5", "δ-opioid receptor (Mus musculus, UniProt P32300)", "class 1"],
  ["CCOC(=O)c1cccc2c3c([nH]c12)[C@@H]1Oc2c(O)ccc4c2[C@@]12CCN(CC1CC1)[C@H](C4)[C@]2(O)C3", "δ-opioid receptor (Mus musculus, UniProt P32300)", "class 1"],
  ["CCOC(=O)c1ccc2[nH]c3c(c2c1)C[C@@]1(O)[C@H]2Cc4ccc(O)c5c4[C@@]1(CCN2CC1CC1)[C@H]3O5", "δ-opioid receptor (Mus musculus, UniProt P32300)", "class 0"],
  ["O=[N+]([O-])c1cccc2c3c([nH]c12)[C@@H]1Oc2c(O)ccc4c2[C@@]12CCN(CC1CC1)[C@H](C4)[C@]2(O)C3", "δ-opioid receptor (Mus musculus, UniProt P32300)", "class 1"]
]}
